In this section we review reported pIC50 values for a set of compounds.
Target: CDK2/Cyclin E1 complex (Homo sapiens)
Assay: CDK2 kinase inhibition assay (Caliper/LabChip EZ Reader)
Conditions: CDK2/Cyclin E1 0.5 nM, ATP 2 mM, 35 min at 27° C.
pIC50: −log10 of the molar value.

-- ask API: value(readout= pIC50, system= CDK2/Cyclin E1 complex (Homo sapiens), query= N#Cc1cc(-c2ccc3c(-c4nc(NC5CCCNC5)ncc4C(F)(F)F)c[nH]c3c2)c[nH]1 (centres unmarked) )
-- reply 5.30 to 6.70

-- ask Please give the result for CCS(=O)(=O)c1ccc2c(-c3nc(NC4CCCNC4)ncc3C(F)(F)F)c[nH]c2c1 (centres unmarked) too.
-- reply 5.30 to 6.70

-- ask Please give the result for CCC1(O)CCN(C(=O)c2ccc3c(-c4nc(NC5CCCNC5)ncc4C(F)(F)F)c[nH]c3c2)C1 (centres unmarked) too.
-- reply ≤ 5.30

-- ask Please give the result for OC1CCC(c2cccc3c(-c4nc(NC5CCCNC5)ncc4C(F)(F)F)c[nH]c23)CC1 (centres unmarked) [Compound 207] too.
-- reply 5.30 to 6.70

-- ask Please give the result for Fc1cnc2[nH]cc(-c3nc(NC4CCCNC4)ncc3C(F)(F)F)c2c1 (centres unmarked) too.
-- reply 6.70 to 7.70

-- ask Please give the result for FC(F)(F)c1cnc(N[C@H]2CCCNC2)nc1-c1c[nH]c2ccc(-c3ccnnc3)cc12 too.
-- reply 5.30 to 6.70

-- ask Please give the result for COCCN1CCCC(Nc2ncc(Cl)c(-c3c[nH]c4ccccc34)n2)C1 (centres unmarked) too.
-- reply 5.30 to 6.70

-- ask Please give the result for CNC(=O)C1CNCC(Nc2ncc(C(F)(F)F)c(-c3c[nH]c4ccccc34)n2)C1 (centres unmarked) [Compound 252] too.
-- reply 5.30 to 6.70
